# assay.remarks: Plasma pharmacokinetics in rats after a 30-min intravenous infusion of Kang-Ai injection
# Format: in vivo, Sprague–Dawley rats
# condition.parameters: male, Sprague-Dawley; rat plasma; 30-min iv infusion of Kang-Ai injection 6 mL/kg; read-out: t1/2 (converted)
value.type: half-life (h)
Numbers only here, please. The scale is h.

Known results for compounds:
O=C1CCC[C@@H]2[C@H]3CCCN4CCC[C@@H](CN12)[C@@H]34
4.33
CC(C)=CCC[C@](C)(O[C@@H]1O[C@H](CO)[C@@H](O)[C@H](O)[C@H]1O)[C@H]1CC[C@]2(C)[C@@H]1[C@H](O)C[C@@H]1[C@@]3(C)CC[C@H](O)C(C)(C)[C@@H]3[C@@H](O[C@@H]3O[C@H](CO)[C@@H](O)[C@H](O)[C@H]3O[C@@H]3O[C@@H](C)[C@H](O)[C@@H](O)[C@H]3O)C[C@]12C [Compound C9, Ginsenoside Re]
1.07
CC(C)=CCC[C@](C)(O[C@@H]1O[C@H](CO[C@@H]2O[C@@H](CO)[C@H](O)[C@H]2O)[C@@H](O)[C@H](O)[C@H]1O)[C@H]1CC[C@]2(C)[C@@H]1[C@H](O)C[C@@H]1[C@@]3(C)CC[C@H](O[C@@H]4O[C@H](CO)[C@@H](O)[C@H](O)[C@H]4O[C@@H]4O[C@H](CO)[C@@H](O)[C@H](O)[C@H]4O)C(C)(C)[C@@H]3CC[C@]12C [Compound D3, Ginsenoside Rc]
6.29

Asked: Retrieve half-life measured for CC(C)=CCC[C@](C)(O[C@@H]1O[C@H](CO[C@@H]2OC[C@H](O)[C@H](O)[C@H]2O)[C@@H](O)[C@H](O)[C@H]1O)[C@H]1CC[C@]2(C)[C@@H]1[C@H](O)C[C@@H]1[C@@]3(C)CC[C@H](O[C@@H]4O[C@H](CO)[C@@H](O)[C@H](O)[C@H]4O[C@@H]4O[C@H](CO)[C@@H](O)[C@H](O)[C@H]4O)C(C)(C)[C@@H]3CC[C@]12C [Compound D4, Ginsenoside Rb2] and print it.
Given back: 4.12

---

# assay.remarks: Stability tests of analytes in rat plasma QC samples
# Type: in vitro ADME
# condition.parameters: rat plasma, nominal conc. 400 nM
value.type: Three freeze-thaw cycles (-80 °C ↔ 23 °C), RE (%)
Numeric answer only, unit % assumed.

A selection of reference data follows.
O=C1C=CC[C@@H]2[C@H]3CCC[N+]4([O-])CCC[C@@H](CN12)[C@@H]34 (stereo partly drawn)
14.91
CC(C)=CCC[C@](C)(O[C@@H]1O[C@H](CO[C@@H]2OC[C@H](O)[C@H](O)[C@H]2O)[C@@H](O)[C@H](O)[C@H]1O)[C@H]1CC[C@]2(C)[C@@H]1[C@H](O)C[C@@H]1[C@@]3(C)CC[C@H](O[C@@H]4O[C@H](CO)[C@@H](O)[C@H](O)[C@H]4O[C@@H]4O[C@H](CO)[C@@H](O)[C@H](O)[C@H]4O)C(C)(C)[C@@H]3CC[C@]12C [Compound D4, Ginsenoside Rb2]
13.72
CC(C)=CCC[C@](C)(O[C@@H]1O[C@H](CO[C@@H]2O[C@@H](CO)[C@H](O)[C@H]2O)[C@@H](O)[C@H](O)[C@H]1O)[C@H]1CC[C@]2(C)[C@@H]1[C@H](O)C[C@@H]1[C@@]3(C)CC[C@H](O[C@@H]4O[C@H](CO)[C@@H](O)[C@H](O)[C@H]4O[C@@H]4O[C@H](CO)[C@@H](O)[C@H](O)[C@H]4O)C(C)(C)[C@@H]3CC[C@]12C [Compound D3, Ginsenoside Rc]
5.12
CC(C)=CCC[C@](C)(O[C@@H]1O[C@H](CO)[C@@H](O)[C@H](O)[C@H]1O)[C@H]1CC[C@]2(C)[C@@H]1[C@H](O)C[C@@H]1[C@@]3(C)CC[C@H](O)C(C)(C)[C@@H]3[C@@H](O[C@@H]3O[C@H](CO)[C@@H](O)[C@H](O)[C@H]3O[C@@H]3OC[C@@H](O)[C@H](O)[C@H]3O)C[C@]12C [Compound C8, Notoginsenoside R1]
-14.53
CC(C)=CCC[C@](C)(O)[C@H]1CC[C@]2(C)[C@@H]1[C@H](O)C[C@@H]1[C@@]3(C)CC[C@H](O)C(C)(C)[C@@H]3[C@@H](O[C@@H]3O[C@H](CO)[C@@H](O)[C@H](O)[C@H]3O)C[C@]12C [Compound C1, Ginsenoside Rh1]
-13.77

Below: the item to evaluate.
Asked: For the molecule CC(C)(O)[C@@H]1CC[C@](C)([C@H]2[C@@H](O)C[C@@]3(C)[C@@H]4C[C@H](O)[C@H]5C(C)(C)[C@@H](O[C@@H]6OC[C@@H](O)[C@H](O)[C@H]6O[C@@H]6O[C@H](CO)[C@@H](O)[C@H](O)[C@H]6O)CC[C@@]56C[C@@]46CC[C@]23C)O1 [Compound B3, Astragaloside III] , give its reported Three freeze-thaw cycles (-80 °C ↔ 23 °C), RE.
Given back: -6.84
